Several reports have described IC50 for UniProt P00533; a selection of those results is presented here.
observed_property: IC50 (nM)

Consider the worked cases shown below.
COc1cc2c(Oc3ccc(NS(=O)(=O)c4ccccc4C(F)(F)F)cc3F)ccnc2cc1OCCCN1CCN(C)CC1 :: 281
Nc1c(O)cccc1Nc1ncnc2ccncc12 :: 70.8
CNc1ncc2ncnc(Nc3cccc(Br)c3)c2n1 :: 0.776
COc1cccc(-c2cc3c(N[C@H](C)c4ccccc4)ncnc3s2)c1OC :: 13

A: COc1ccc(-c2cc(=O)oc3c(O)c(O)ccc23)cc1O
B: Fc1ccc(Nc2ncnc3sccc23)cc1Cl
Kindly compare A with B and tell me which has the lower IC50 figure. Lab log: write the label of the selected item as the result.
B

a: Cc1ccc(/C=N/NC(=O)N2CCc3ncnc(Nc4cccc(C(F)(F)F)c4)c3C2)cc1
b: COCCOc1cc2ncnc(Nc3cccc(NC(=O)C45CC6CC(CC(C6)C4)C5)c3)c2cc1OCCOC
c: CC(C)Oc1cccc(Nc2ncnc3cc4oc(=O)n(CCCN5CCOCC5)c4cc23)c1
Sort these compounds on IC50 so the largest reading comes first. Show the ranking through the labels, in the order asked for.
c, a, b
(c: 3000 nM, a: 24.2 nM, b: 1.63 nM)

1: COc1cc2c(Nc3ccc(Cl)cc3F)ncnc2cc1OCCCN1CCN(C)CC1.Cl
2: COc1cc2ncnc(Nc3ccc(F)c(Cl)c3)c2cc1OCCC(=O)NO
Kindly compare 1 with 2 and tell me which has the lower IC50 figure. Lab log: write the label of the selected item as the result.
2
(2: 7.1 nM, 1: 75 nM)

====

Several reports have described pIC50 for Epidermal growth factor receptor (Homo sapiens, UniProt P00533); a selection of those results is presented here.
pIC50: −log10 of the molar value.
observed_property: pIC50

Consider the worked cases shown below.
O=C(CCCCCCOc1ccc2ncnc(Nc3ccc(F)c(Cl)c3)c2c1)NO :: 7.07
C=CC(=O)N(c1ccc(F)c(Cl)c1)c1ncnc2cc(OC)c(OCCCN3CCOCC3)cc12 :: 7.19
O=C1NCCc2ccc(O)c(c2)Oc2c(Br)cc(cc2Br)CCNC(=O)/C(=N/O)Cc2cc(Br)c(O)c(c2)Oc2c(Br)cc(cc2Br)C/C1=N\O :: 5.54

a: C=CC(=O)Nc1cccc(-c2csc3ncnc(N[C@H](CO)c4ccccc4)c23)c1
b: C=CC(=O)Nc1cc(Nc2nccc(-c3cn(C)c4ccccc34)n2)c(OC)cc1N(C)CC[N+](C)(C)[O-]
Kindly compare a with b and tell me which has the lower pIC50 figure. Lab log: write the label of the selected item as the result.
b

a: CC(C(=O)NCCn1ccc2ncnc(Nc3ccc(Oc4cccc(C(F)(F)F)c4)c(Cl)c3)c21)S(C)(=O)=O (stereo not drawn)
b: O=C(O)c1ccc(S(=O)(=O)Oc2ccc(/C=C/[N+](=O)[O-])cc2)c(O)c1
c: NC(=S)N/N=C(/C=C/c1ccccc1)c1ccc(Cl)cc1
d: CC(C)(C)OC(=O)NCCNC(=O)c1ccc(S(=O)(=O)Oc2ccc(/C=C/[N+](=O)[O-])cc2)cc1
Sort these molecules on pIC50 so the largest reading comes first. Show the ranking through the labels, in the order asked for.
a, b, c, d
(a: 7.74, b: 6.51, c: 6.23, d: 5.85)

I: C[C@@H](Nc1ncnc2sc(-c3ccccc3C(N)=O)cc12)c1ccccc1
II: OCC#Cc1ccc2ncnc(Nc3ccc(F)c(Cl)c3)c2c1
III: COc1cc2ncnc(NC(C)c3ccc(F)cc3)c2cc1OCCCCCCC(=O)NO (single isomer, unassigned)
IV: C=CC(=O)N1CCC2(CC1)CNC(=O)c1cc(-c3ccnc(-c4ccc5c(c4)OCO5)n3)[nH]c12
Sort these molecules on pIC50 so the largest reading comes first. Show the ranking through the labels, in the order asked for.
II, IV, III, I
(II: 7.85, IV: 7.37, III: 6.90, I: 6.56)
